Origin of values: the supplement of paper PMC10567573

B1: MYOZ1 (parent)
chain: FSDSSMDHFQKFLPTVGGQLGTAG

variants of: B1; test: protein stability index of a GFP-peptide fusion (GPS, HEK-293T) (PSI 1-6); higher = more stable; conditions: c terminus: a fixed tail appended;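 note: lentivirally expressed fusions sorted by FACS into six bins by GFP to DsRed ratio, PSI derived from sequencing read proportions per bin multiplied by bin number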
Record MET whenever protein stability index is at 2 or higher; record NOT MET when lower.

INSERT INTO results (mutation_list, label_class) VALUES
  ('F9R', 'MET'),
  ('F12W', 'NOT MET'),
  ('P14Q', 'MET'),
  ('Q10T', 'MET'),
  ('D7K', 'NOT MET'),
  ('H8I', 'MET'),
  ('D3N', 'NOT MET'),
  ('Q19L', 'MET');

q: Does the reported protein stability index for F1R fall at or above the 2 mark?
a: MET

q: Does the reported protein stability index for Q10N fall at or above the 2 mark?
a: MET

q: Does the reported protein stability index for F12C fall at or above the 2 mark?
a: MET

q: Does the reported protein stability index for D7I fall at or above the 2 mark?
a: MET

q: Does the reported protein stability index for F1E fall at or above the 2 mark?
a: MET
